procedure.summary: Gut enzyme digestion, M. sexta gut extract
Type: in vitro ADME, Manduca sexta
test.parameters: gut extract stability testing; limit of testing 50‐fold
Bridges are numbered along the chain shown (N, C = ends). Where no end group is shown, it is not given here.
# Lookup of reported Fold stability improvement over Ta1b keyed by entry

biopolymer.sequence: EPDEICRANMTNKEFTYKSNVCNNCGDQVAACEAECFRNDVYTACHEAQKG (disulfide 6-36, 22-32, 25-45) [Mutant R9N]
attribute.measured: Fold stability improvement over Ta1b
result: >50

So for EPDEICRNRMTNKEFTYKSNVCNNCGDQVAACEAECFRNDVYTACHEAQKG (disulfide 6-36, 22-32, 25-45) [Mutant A8N] , the logged Fold stability improvement over Ta1b turned out to be 1.8

# sequence EPDEICRAHMTNKEFTYKSNVCNNCGDQVAACEAECFRNDVYTACHEAQKG (disulfide 6-36, 22-32, 25-45) [Mutant R9H] ; its Fold stability improvement over Ta1b = 16.2

Sure, the documented Fold stability improvement over Ta1b for EPDEICRARMPNKEFTYKSNVCNNCGDQVAACEAECFRNDVYTACHEAQKG (disulfide 6-36, 22-32, 25-45) [Mutant T11P] is >50

// Fold stability improvement over Ta1b value for EPDEICRSRMTNKEFTYKSNVCNNCGDQVAACEAECFRNDVYTACHEAQKG (disulfide 6-36, 22-32, 25-45) [Mutant A8S] : 12.1

The sequence identified as EPDEICRAQMTNKEFTYKSNVCNNCGDQVAACEAECFRNDVYTACHEAQKG (disulfide 6-36, 22-32, 25-45) [Mutant R9Q] registered its Fold stability improvement over Ta1b at >50

Cited source for all entries: paper PMC12441774
